Quick list: inhibition per entry.
Biological target: L-lactate dehydrogenase (Plasmodium falciparum (isolate CDC / Honduras))
Experiment: PfLDH activity inhibition – cell lysate, 3D7 strain, counter-screen for P. falciparum growth inhibition project (AID 2304);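 note: 0% = vehicle and 100% = reference inhibitor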
Conditions: P. falciparum 3D7 crude extract, LDH APAD/NBT absorbance; at 2 µM; stronger effect = higher value
Value expressed in %; do not type the unit.

{"Compound": "CCCC(CNCc1cccc(C)c1)CNc1cc(=O)c2ccccc2[nH]1 (stereo not drawn)", "Subject of test": "L-lactate dehydrogenase (Plasmodium falciparum (isolate CDC / Honduras))", "Uom": "%", "inhibition": -7}
{"Compound": "CCc1cccc2c(C#N)cn(CC(=O)Nc3ccc(OC)cc3)c12", "Subject of test": "L-lactate dehydrogenase (Plasmodium falciparum (isolate CDC / Honduras))", "Uom": "%", "inhibition": -3}
{"Compound": "Cc1ccc(NC(=O)c2ccnc(N3CCN(c4ccncc4)CC3)c2)cc1F", "Subject of test": "L-lactate dehydrogenase (Plasmodium falciparum (isolate CDC / Honduras))", "Uom": "%", "inhibition": -2}
{"Compound": "Cn1c(N)c(N=O)c(=O)[nH]c1=O", "Subject of test": "L-lactate dehydrogenase (Plasmodium falciparum (isolate CDC / Honduras))", "Uom": "%", "inhibition": 0}
{"Compound": "c1cncc(CCNCc2ccc(-c3ccc(CNC4Cc5ccccc5C4)cc3)cc2)c1", "Subject of test": "L-lactate dehydrogenase (Plasmodium falciparum (isolate CDC / Honduras))", "Uom": "%", "inhibition": 1}
{"Compound": "O=C(Nc1ccc(Cn2ncc(N3CCCNCC3)c(Cl)c2=O)cc1)Nc1ccc(F)cc1[N+](=O)[O-]", "Subject of test": "L-lactate dehydrogenase (Plasmodium falciparum (isolate CDC / Honduras))", "Uom": "%", "inhibition": -4}
{"Compound": "CCCN1CCN(c2cc(NCC)c3c4c(onc24)-c2ccccc2C3=O)CC1", "Subject of test": "L-lactate dehydrogenase (Plasmodium falciparum (isolate CDC / Honduras))", "Uom": "%", "inhibition": 6}
{"Compound": "CCOc1ccc2nc(C)cc(NN=Cc3cccc(F)c3)c2c1", "Subject of test": "L-lactate dehydrogenase (Plasmodium falciparum (isolate CDC / Honduras))", "Uom": "%", "inhibition": 0}

I'd like to know its inhibition. The compound in question is O=C(Nc1ccc(Cl)cc1F)N[C@H]1CCN(CCCCCNC(=O)[C@@H]2C[C@H]2c2ccc(Cl)c(Cl)c2)C1
3

# iterate: CCCN(Cc1nnc(-c2cccs2)o1)C(=O)CSc1nnnn1-c1cc(C)cc(C)c1
8

====

Experiment: human hepatoma cell viability loss – ATP luminescence, cytotoxicity control for P. falciparum antimalarial project, primary screen (AID 2303);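 note: 0% = DMSO wells and 100% = digitonin-killed cells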
Details: HepG2 viability, 24-48 h, at 10 µM
The source made the active and inactive calls.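 How the source made its calls: active means inhibition above 50%; inactive means the rest.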
I would appreciate it if you answered using one of these outcomes: T = active, F = inactive

Sample answers from the record:
{"Compound": "CCN(c1ccc(F)cc1)S(=O)(=O)c1cc(Br)cc2c1N(C(=O)C1CC1)CC2", "Discrete label": "F"}
{"Compound": "CC[C@H]1CN(Cc2ccco2)CC[C@H]1CCCc1ccnc2ccc(O)cc12", "Discrete label": "F"}
{"Compound": "CCCC(C(=O)OCCN(CC)CC)(c1ccc(Cl)cc1)c1ccc(Cl)cc1", "Discrete label": "F"}

Check the results log: what was the call for O=C(/C=C/c1ccc(Cl)c(Cl)c1)NCCCCCN1CCCC(CNC(=O)/C=C/c2ccccc2)C1 (centres undefined) ?
F

Queued: CC(=O)Nc1ccc2[nH]cc(C3CCN(CC4CCC(NC(=O)/C=C/c5ccccc5Cl)CC4)CC3)c2n1 (centres undefined)
F

Follow-up entry: N#Cc1ccc(C=NNc2nc3ccccc3[nH]2)cc1
F

Next record, please: O=c1cc(-c2cccc(C(F)(F)F)c2)nc(Nc2ccc(Cl)c(Cl)c2)[nH]1
T

Same for CCn1ccc2c(N3CCCS3(=O)=O)cc(C(=O)N[C@@H](Cc3ccccc3)[C@H](O)CNC(C)(C)CCCC(C)C)cc21
F

Item: CCn1c(Cc2ccccc2)nnc1SCC(=O)N1c2ccccc2Sc2ccccc21
F

====

Molecular target: L-lactate dehydrogenase (Plasmodium falciparum (isolate CDC / Honduras))
Test: PfLDH activity inhibition – cell lysate, 3D7 strain, counter-screen for P. falciparum growth inhibition project (AID 2304);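 note: 0% = vehicle and 100% = reference inhibitor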
Settings: P. falciparum 3D7 crude extract, LDH APAD/NBT absorbance; at 2 µM; stronger effect = higher value
Form field: inhibition (one value per entry).
Provide only the numeric value, understood in %.

{"Compound": "Cc1cccnc1Nc1nc(-c2ccccn2)cs1", "Subject of test": "L-lactate dehydrogenase (Plasmodium falciparum (isolate CDC / Honduras))", "Uom": "%", "inhibition": -1}

Fill blank: measured inhibition of the compound CS(=O)(=O)n1c(CN2CCN(c3ncc(C(F)(F)F)cc3Cl)CC2)nc2ccccc21 is ____.
-4

CCOC(=O)c1ccc(N2CCN(c3cc(C)ccc3C)CC2)c(NC(=O)Nc2ccc(Cl)c(Cl)c2)c1 , same question.
-2

How about O=C(Nc1cccc(-c2ccc(-c3nc4ccc(C(F)(F)F)cc4[nH]3)s2)c1)c1ccncc1 ?
-13

Same thing, different compound: COc1ccc2nccc([C@@H](O)CN3CCC(NC(=O)C(=Cc4ccc(Cl)cc4Cl)c4ccc(-c5ccccc5)cc4)CC3)c2c1
-2

Ok, now O=S(=O)(Nc1ccc2nccc(N3CCNCC3)c2c1)c1ccc(-c2ccccc2)cc1
-2

Another compound to look at: Cc1[nH]c2ccccc2c1C(=O)C(C)Sc1n[nH]c(-c2ccccc2Br)n1 (centres undefined)
-3

Same question for CCN(CC)CCCC(C)Nc1c(-c2ccc(C)cc2)cnc2ccccc12 (centres undefined) please.
1

Another: COC(=O)c1cccc(CNCc2cccc(-c3ccc(-c4nc5c(C)cccc5[nH]4)s3)c2)c1
1

Also O=C(Nc1ccc(-c2cccc(-c3nc4ccccc4[nH]3)c2)cc1)Nc1ccc2c(c1)OCO2 ?
0

====

growth inhibition values by entry
Assay: inhibition of 3D7 malaria parasite growth – strain 3D7 (AID 2306);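 note: 0% = DMSO wells and 100% = chloroquine plus artemisinin control wells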
Conditions: P. falciparum 3D7 erythrocytic growth, LDH absorbance, 72 h; at 2 µM; stronger effect = higher value
The reply should be a number in %, with the unit left off.

Record excerpt, results attached:
{"Compound": "O=C(Nc1ccc(-c2ccccc2)cc1)Nc1cccc(Cn2ncc(N3CCNCC3)c(Cl)c2=O)c1", "growth inhibition, %": 100}
{"Compound": "CCN(CCCN1CCCCC1)c1cc(C)nc(Nc2cc(Cl)cc(Cl)c2)n1", "growth inhibition, %": 100}
{"Compound": "CC(C)CNC(=O)c1cncc(-c2ccc(CNC3Cc4ccccc4C3)cc2)c1", "growth inhibition, %": 99}
{"Compound": "Cc1cccc2[nH]c(-c3ccc(-c4ccc(CN5CCN(CC6CCCN(C)C6)CC5)cc4)s3)nc12 (centres undefined)", "growth inhibition, %": 101}

What value of growth inhibition has been recorded for this entry: CC(C)N(Cc1ccccc1)C(=O)CN1C(=O)COc2ccc(S(=O)(=O)N3CCCCCC3)cc21
99

Would you mind doing O=C(Nc1ccc(N2CCCN(Cc3cccc(F)c3)CC2)cc1)c1cccs1 as well?
96

Now the compound Cc1ccc(C)c(NC(=O)NC2CCN(c3ccnc(Nc4ccc(F)cc4)n3)C2)c1 (centres undefined)
100

Could you do the same for O=C(NCCCCCN1CCC(c2c[nH]c3ccccc23)CC1)c1ccc(Cl)c(Cl)c1 , please?
85

Also Cc1cc(NN=Cc2ccc(F)cc2)c2ccc(C(F)(F)F)cc2n1 , if possible.
95

====

// reported growth inhibition per item
Experiment: inhibition of 3D7 malaria parasite growth – strain 3D7 (AID 2306);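 note: 0% = DMSO wells and 100% = chloroquine plus artemisinin control wells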
Conditions: P. falciparum 3D7 erythrocytic growth, LDH absorbance, 72 h; at 2 µM; stronger effect = higher value
Numbers only here, please. The scale is %.

Here's what some known entries look like.
{"Compound": "COc1cccc(OC)c1CN1CCC(N(C)CCCCCCCCCN2CCC(OC(=O)Nc3ccccc3-c3ccccc3)CC2)CC1", "growth inhibition [%]": 98}
{"Compound": "CC1CCCN(S(=O)(=O)c2ccc(NC(=O)c3cc(-c4ccccc4O)n[nH]3)cc2)C1 (centres undefined)", "growth inhibition [%]": 93}
{"Compound": "C[C@@H](COc1ccccc1)NCC(O)c1ccc([N+](=O)[O-])c(OCc2ccccc2)c1 (some centres undefined)", "growth inhibition [%]": 93}
{"Compound": "Cc1[nH]c(C)c(-c2ccc(OCc3cc(F)cc(F)c3)nc2)c(=O)c1Br", "growth inhibition [%]": 98}
{"Compound": "CCN(CCCN1CCCCC1)c1cc(C)nc(Nc2ccc(C)c(Cl)c2)n1", "growth inhibition [%]": 101}
{"Compound": "O=C(Nc1cc(Cl)ccc1O)c1cc(-c2ccccc2O)no1", "growth inhibition [%]": 95}
{"Compound": "Cc1cccc2[nH]c(-c3ccc(-c4cccc(CN5CCC(CCN6CCCCC6)CC5)c4)s3)nc12", "growth inhibition [%]": 101}
{"Compound": "CCCCOP(=O)(COc1ccc(CCN(CC(O)COc2cccc3[nH]c4ccccc4c23)CC(O)COc2cccc3[nH]c4ccccc4c23)cc1)C1CCCCC1 (centres undefined)", "growth inhibition [%]": 89}

Consider the record given below.
Entry under review: Cc1ccc(C(C)C)cc1CON1C(N)=NC(N)=NC1(C)C . Reported growth inhibition?
94
